# Target Entity: Nicotinamide phosphoribosyltransferase (Homo sapiens, UniProt P43490)
# Sequence (P43490 whole entry): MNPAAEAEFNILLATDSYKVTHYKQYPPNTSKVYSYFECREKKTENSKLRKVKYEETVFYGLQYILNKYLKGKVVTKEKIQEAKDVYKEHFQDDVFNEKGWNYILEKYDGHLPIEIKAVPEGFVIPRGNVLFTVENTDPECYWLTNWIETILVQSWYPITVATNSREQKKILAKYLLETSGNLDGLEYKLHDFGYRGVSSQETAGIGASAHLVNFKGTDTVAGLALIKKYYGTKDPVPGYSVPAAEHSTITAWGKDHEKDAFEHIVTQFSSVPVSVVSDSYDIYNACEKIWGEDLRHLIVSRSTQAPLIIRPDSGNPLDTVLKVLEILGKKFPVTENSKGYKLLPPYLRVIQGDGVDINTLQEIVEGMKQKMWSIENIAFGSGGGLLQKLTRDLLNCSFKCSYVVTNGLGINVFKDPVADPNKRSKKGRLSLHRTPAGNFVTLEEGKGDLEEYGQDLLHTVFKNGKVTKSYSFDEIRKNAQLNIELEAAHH
# Procedure Summary: Inhibition of recombinant NAMPT (unknown origin) using NAM and PRPP as substrates incubated for 60 mins in presence of NMNAT1 measured at 5 mins interval for 30 mins by WST1 assay
Quantity Name: IC50 (nM)
Reply with just the number (in nM).

input_smiles=O=C(/C=C/c1cccnc1)NCCCCCc1ccc(S(=O)(=O)Nc2ccccc2)cc1 endpoint_unit=nM recorded_value=28.4
input_smiles=O=C(/C=C/c1cccnc1)NCCCCCCc1ccc(S(=O)(=O)Nc2ccccc2)cc1 endpoint_unit=nM recorded_value=14.4
input_smiles=O=C(/C=C/c1cccnc1)NCCCCCc1cccc(S(=O)(=O)Nc2ccccc2)c1 endpoint_unit=nM recorded_value=16.5
input_smiles=O=C(/C=C/c1cccnc1)NCCCCCCc1cccc(S(=O)(=O)Nc2ccccc2)c1 endpoint_unit=nM recorded_value=10.5
input_smiles=CCc1ccc(NS(=O)(=O)c2cccc(CCCCCCNC(=O)/C=C/c3cccnc3)c2)cc1 endpoint_unit=nM recorded_value=31.5
input_smiles=CC(C)(C)c1ccc(NS(=O)(=O)c2cccc(CCCCCCNC(=O)/C=C/c3cccnc3)c2)cc1 endpoint_unit=nM recorded_value=9.47

Query string: Find the recorded IC50 belonging to `O=C(/C=C/c1cccnc1)NCCCc1cccc(S(=O)(=O)Nc2ccccc2)c1` and report it.
Result string: 235

Query string: Would you mind doing `O=C(/C=C/c1cccnc1)NCCCCCCc1cccc(S(=O)(=O)Nc2ccc(F)cc2)c1` as well?
Result string: 9.2

Query string: // repeat for `Cc1ccc(NS(=O)(=O)c2cccc(CCCCCCNC(=O)/C=C/c3cccnc3)c2)cc1` and report
Result string: 9.78

Query string: Would you mind doing `O=C(/C=C/c1cccnc1)NCCCCCCc1cccc(S(=O)(=O)Nc2ccc(C(F)(F)F)cc2)c1` as well?
Result string: 24.5

Query string: Then `O=C(/C=C/c1cccnc1)NCCCCCCc1cccc(S(=O)(=O)Nc2ccc(Oc3ccccc3)cc2)c1` ?
Result string: 13.1

Query string: And then `O=C(/C=C/c1cccnc1)NCCCCCCCc1cccc(S(=O)(=O)Nc2ccccc2)c1` , what is it?
Result string: 31.3

Query string: One more molecule: `O=C(/C=C/c1cccnc1)NCCCCCCc1cccc(S(=O)(=O)Nc2ccc(F)c(Cl)c2)c1`
Result string: 9.7

Query string: Next record, please: `O=C(/C=C/c1cccnc1)NCCCc1ccc(S(=O)(=O)Nc2ccccc2)cc1`
Result string: 5920

Query string: Lookup `O=C(/C=C/c1cccnc1)NCCCCCCCc1ccc(S(=O)(=O)Nc2ccccc2)cc1`
Result string: 16.4

----------
# Test system: K562
# Procedure Summary: Antiproliferative activity against human K562 cells assessed as inhibition of cell growth after 72 hrs by CCK-8 assay
# Type: functional, cell-based
# Experimental Context: K562, 72 h
TRUE if IC50 is below 5 nM. FALSE if not; exact matches included in FALSE.

Query string: Record `O=C(/C=C/c1cccnc1)NCCCc1cccc(S(=O)(=O)Nc2ccccc2)c1` : is its IC50 strictly below 5 nM?
Result string: FALSE

Query string: Another compound to look at: `Cc1ccc(C)c(NS(=O)(=O)c2cccc(CCCCCCNC(=O)/C=C/c3cccnc3)c2)c1`
Result string: TRUE

Query string: Now the same for `Cc1cccc(NS(=O)(=O)c2cccc(CCCCCCNC(=O)/C=C/c3cccnc3)c2)c1`
Result string: TRUE

Query string: Similarly, `O=C(/C=C/c1cccnc1)NCCCCCCc1cccc(S(=O)(=O)Nc2ccc(F)cc2)c1` ?
Result string: TRUE

Query string: Now the compound `CCc1ccc(NS(=O)(=O)c2cccc(CCCCCCNC(=O)/C=C/c3cccnc3)c2)cc1`
Result string: TRUE

Query string: Try this compound next: `O=C(/C=C/c1cccnc1)NCCCCCCc1cccc(S(=O)(=O)Nc2ccc(C(F)(F)F)cc2)c1`
Result string: FALSE

Query string: Same again, this time with `O=C(/C=C/c1cccnc1)NCCCc1ccc(S(=O)(=O)Nc2ccccc2)cc1`
Result string: FALSE

Query string: Follow-up item: `O=C(/C=C/c1cccnc1)NCCCCCCc1cccc(S(=O)(=O)Nc2ccc(F)c(Cl)c2)c1`
Result string: FALSE

Query string: Then `O=C(/C=C/c1cccnc1)NCCCCCCc1ccc(S(=O)(=O)Nc2ccccc2)cc1` ?
Result string: FALSE

Query string: Also check `O=C(/C=C/c1cccnc1)NCCCCCCc1cccc(S(=O)(=O)Nc2ccccc2)c1`
Result string: TRUE

Query string: Also `O=C(/C=C/c1cccnc1)NCCCCCCCc1cccc(S(=O)(=O)Nc2ccccc2)c1` , if possible.
Result string: FALSE

Query string: Continue with `O=C(/C=C/c1cccnc1)NCCCCCCCc1ccc(S(=O)(=O)Nc2ccccc2)cc1`
Result string: FALSE

Query string: And then `O=C(/C=C/c1cccnc1)NCCCCCCc1cccc(S(=O)(=O)Nc2ccc(Cl)cc2)c1` , what is it?
Result string: FALSE

Query string: Record: `CC(C)(C)c1ccc(NS(=O)(=O)c2cccc(CCCCCCNC(=O)/C=C/c3cccnc3)c2)cc1`
Result string: FALSE

Query string: And for `O=C(/C=C/c1cccnc1)NCCCCCc1ccc(S(=O)(=O)Nc2ccccc2)cc1` ?
Result string: FALSE

Query string: Item: O=C(/C=C/c1cccnc1)NCCCCC1CCN(C(=O)c2ccccc2)CC1 [DAPORINAD]
Result string: TRUE

Query string: Next compound: `Cc1ccc(NS(=O)(=O)c2cccc(CCCCCCNC(=O)/C=C/c3cccnc3)c2)cc1`
Result string: TRUE

Query string: Proceed to `O=C(/C=C/c1cccnc1)NCCCCc1ccc(S(=O)(=O)Nc2ccccc2)cc1`
Result string: FALSE

Query string: Now the compound `O=C(/C=C/c1cccnc1)NCCCCCc1cccc(S(=O)(=O)Nc2ccccc2)c1`
Result string: FALSE

The values you see were collected from ChEMBL document CHEMBL4387716.
